molecular target: MINK1 (human); assay: radiometric filter-binding kinase assay, Kinase HotSpot; conditions: compound 0.5 µM; ATP 10 µM
Label scheme for residual activity: lower than 90% is Not met, 90% and above is Met.

Dear colleague, could you confirm whether Cc1[nH]c(/C=C2\C(=O)Nc3ccc(S(=O)(=O)N(C)c4cccc(Cl)c4)cc32)c(C)c1C(=O)N1CCN(C)CC1 has residual activity at or above 90%? Not met

###

target: GRK4 (human); experiment: radiometric filter-binding kinase assay, Kinase HotSpot; conditions: compound 0.5 µM; ATP 10 µM
We begin with a simple list: items and their reported residual activity.
Report the value in % with no unit label.

Structure: CCN(CC)CCNC(=O)c1c(C)[nH]c(/C=C2\C(=O)Nc3ccc(F)cc32)c1C
Tested On: GRK4 (human)
Unit Abbreviation: %
residual activity: 75.8
//
Structure: O=c1cc(N2CCOCC2)oc2c1ccc1ccccc12
Tested On: GRK4 (human)
Unit Abbreviation: %
residual activity: 104
//
Structure: Cc1ccc(NC2=CC(=O)c3sc(C)nc3C2=O)cc1
Tested On: GRK4 (human)
Unit Abbreviation: %
residual activity: 93.1
//
Structure: CC(=O)c1ccc(N2CCOCC2)cc1O
Tested On: GRK4 (human)
Unit Abbreviation: %
residual activity: 106
//
Structure: CCOC(=O)c1c(C)[nH]c(/C=C2\C(=O)Nc3ccccc32)c1C
Tested On: GRK4 (human)
Unit Abbreviation: %
residual activity: 82.9
//
Structure: CC[n+]1c(/C=C/N(C)c2ccccc2)n(-c2ccccc2)c2ccc(-c3nc4ccccc4s3)cc21
Tested On: GRK4 (human)
Unit Abbreviation: %
residual activity: 103
//
Structure: Cc1[nH]c(/C=C2\C(=O)Nc3ccc(S(=O)(=O)N(C)c4cccc(Cl)c4)cc32)c(C)c1C(=O)N1CCN(C)CC1
Tested On: GRK4 (human)
Unit Abbreviation: %
residual activity: 103
//
Structure: CCC(=O)Nc1ccc2ncnc(Nc3cccc(Br)c3)c2c1
Tested On: GRK4 (human)
Unit Abbreviation: %
residual activity: 96.2

Item CNC(=O)c1cc(Oc2ccc(NC(=O)Nc3ccc(Cl)c(C(F)(F)F)c3)cc2)ccn1 has what recorded residual activity? 103

Item Nc1ncnc2c1c(-c1ccc(Oc3ccccc3)cc1)cn2C1CCCC1 has what recorded residual activity? 103

###

biological target: UniProt:O96013; test: radiometric filter-binding kinase assay, Kinase HotSpot; details: compound 0.5 µM; ATP 10 µM
Sequence (O96013 whole entry, looked up): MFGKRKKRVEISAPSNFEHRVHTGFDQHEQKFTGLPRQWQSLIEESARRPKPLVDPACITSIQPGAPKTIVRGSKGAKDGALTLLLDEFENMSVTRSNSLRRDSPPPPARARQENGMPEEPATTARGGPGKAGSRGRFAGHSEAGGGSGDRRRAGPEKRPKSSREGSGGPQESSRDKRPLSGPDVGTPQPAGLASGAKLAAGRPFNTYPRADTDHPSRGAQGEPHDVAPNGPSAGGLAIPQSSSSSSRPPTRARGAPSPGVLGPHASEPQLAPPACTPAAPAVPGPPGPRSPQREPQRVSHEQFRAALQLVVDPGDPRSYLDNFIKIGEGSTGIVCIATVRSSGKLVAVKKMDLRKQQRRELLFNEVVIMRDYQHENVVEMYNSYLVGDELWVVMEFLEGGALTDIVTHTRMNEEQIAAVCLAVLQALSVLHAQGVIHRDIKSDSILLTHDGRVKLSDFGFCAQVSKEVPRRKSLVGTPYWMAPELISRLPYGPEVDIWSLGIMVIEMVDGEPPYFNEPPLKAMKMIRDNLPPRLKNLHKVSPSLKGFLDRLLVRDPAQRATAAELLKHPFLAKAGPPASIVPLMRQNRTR
We begin with a simple list: items and their reported residual activity.
Report the value in % with no unit label.

Consider the following illustrative entries.
Compound: CC#CC(=O)Nc1cc2c(Nc3ccc(F)c(Cl)c3)ncnc2cn1
residual activity / %: 107

Compound: CO[C@H]1CC2CC[C@@H](C)[C@@](O)(O2)C(=O)C(=O)N2CCCC[C@H]2C(=O)OC([C@H](C)C[C@@H]2CC[C@@H](O)[C@H](OC)C2)CC(=O)[C@H](C)/C=C(\C)[C@@H](O)[C@@H](OC)C(=O)[C@H](C)C[C@H](C)/C=C/C=C/C=C/1C (some centres undefined)
residual activity / %: 97.1

Compound: CC(=O)c1ccc(N2CCOCC2)cc1O
residual activity / %: 103

Compound: Nc1ncnc2c1c(-c1ccc(Oc3ccccc3)cc1)cn2C1CCCC1
residual activity / %: 101

Compound: CCN(CC)CCNC(=O)c1c(C)[nH]c(/C=C2\C(=O)Nc3ccc(F)cc32)c1C
residual activity / %: 80.9

Entry CCN(CC)CCNC(=O)c1c(C)[nH]c(/C=C2\C(=O)Nc3ccc(Cl)cc32)c1C , system UniProt:O96013: what residual activity was measured? 76.7

Entry c1ccc(-c2n[nH]cc2-c2ccnc3ccccc23)nc1 , system UniProt:O96013: what residual activity was measured? 76.9

Entry CC[n+]1c(/C=C/N(C)c2ccccc2)n(-c2ccccc2)c2ccc(-c3nc4ccccc4s3)cc21 , system UniProt:O96013: what residual activity was measured? 109

Entry O=C1Nc2ccc(Cl)cc2/C1=C/c1cc(Cl)c(O)c(Cl)c1 , system UniProt:O96013: what residual activity was measured? 88.7

###

target: UniProt:P54764; assay: radiometric filter-binding kinase assay, Kinase HotSpot; conditions: compound 0.5 µM; ATP 10 µM
Sequence (P54764 whole entry, looked up): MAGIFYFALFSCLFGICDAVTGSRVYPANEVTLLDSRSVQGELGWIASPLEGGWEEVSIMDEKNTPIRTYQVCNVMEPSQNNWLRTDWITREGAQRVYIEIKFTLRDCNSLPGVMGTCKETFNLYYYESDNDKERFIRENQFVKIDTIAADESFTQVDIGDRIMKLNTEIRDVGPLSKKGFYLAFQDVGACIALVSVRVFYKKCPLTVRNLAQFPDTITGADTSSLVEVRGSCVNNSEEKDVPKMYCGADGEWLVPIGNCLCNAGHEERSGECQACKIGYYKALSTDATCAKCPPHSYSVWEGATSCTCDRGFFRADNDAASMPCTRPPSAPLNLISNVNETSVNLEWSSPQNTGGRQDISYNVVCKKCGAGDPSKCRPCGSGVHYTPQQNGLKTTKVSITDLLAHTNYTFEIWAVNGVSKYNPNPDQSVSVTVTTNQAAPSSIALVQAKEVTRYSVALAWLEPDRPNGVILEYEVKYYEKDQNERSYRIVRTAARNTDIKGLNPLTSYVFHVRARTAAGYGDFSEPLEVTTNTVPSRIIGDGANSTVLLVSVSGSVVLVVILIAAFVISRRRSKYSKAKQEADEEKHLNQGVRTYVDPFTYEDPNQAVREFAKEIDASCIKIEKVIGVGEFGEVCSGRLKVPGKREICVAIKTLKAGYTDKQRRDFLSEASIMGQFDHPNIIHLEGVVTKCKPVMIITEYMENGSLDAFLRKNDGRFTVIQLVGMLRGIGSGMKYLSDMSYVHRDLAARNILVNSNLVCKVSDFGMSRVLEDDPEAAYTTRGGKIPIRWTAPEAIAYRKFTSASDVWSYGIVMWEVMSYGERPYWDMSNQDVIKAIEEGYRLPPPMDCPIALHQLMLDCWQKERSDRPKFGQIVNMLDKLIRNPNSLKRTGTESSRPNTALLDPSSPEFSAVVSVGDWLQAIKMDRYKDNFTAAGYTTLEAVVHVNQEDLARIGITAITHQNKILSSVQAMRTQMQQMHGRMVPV
Property Name: residual activity (%)
Report the value in % with no unit label.

Structure: CC(C)N(CCC(=O)c1ccc2ccccc2c1)Cc1ccccc1
Property Name: residual activity
Unit Abbreviation: %
Val: 94.5

Item COc1cc2ncnc(Nc3cccc(Cl)c3)c2cc1OC has what recorded residual activity? 81.7

Item Nc1ncnc2c1c(-c1ccc(Oc3ccccc3)cc1)cn2C1CCCC1 has what recorded residual activity? 87.5

Item O=C1Nc2ccc(Cl)cc2/C1=C/c1cc(Cl)c(O)c(Cl)c1 has what recorded residual activity? 93.1

Item CNc1cc2c(Nc3cccc(Br)c3)ncnc2cn1 has what recorded residual activity? 94.2

Item CC#CC(=O)Nc1cc2c(Nc3ccc(F)c(Cl)c3)ncnc2cn1 has what recorded residual activity? 94.6

###

biological target: BRAF (human); test: radiometric filter-binding kinase assay, Kinase HotSpot; conditions: compound 0.5 µM; ATP 10 µM
Property Name: residual activity (%)
Report the value in % with no unit label.

Structure: CCN(CC)CCNC(=O)c1c(C)[nH]c(/C=C2\C(=O)Nc3ccc(Cl)cc32)c1C
Unit Abbreviation: %
residual activity: 109
--
Structure: c1ccc(-c2n[nH]c3c2oc2ccccc23)cc1
Unit Abbreviation: %
residual activity: 96.9
--
Structure: COc1ccc(COc2ccc(Cc3cnc(N)nc3N)cc2OC)cc1
Unit Abbreviation: %
residual activity: 99
--
Structure: O=C(Nc1cccc(Nc2nccc(Nc3cccc(C(F)(F)F)c3)n2)c1)C1CC1
Unit Abbreviation: %
residual activity: 104
--
Structure: CCN(CC)CCNC(=O)c1c(C)[nH]c(/C=C2\C(=O)Nc3ccc(F)cc32)c1C
Unit Abbreviation: %
residual activity: 106
--
Structure: Nc1ncnc2[nH]nc(Nc3ccc(F)cc3)c12
Unit Abbreviation: %
residual activity: 91.7

Entry CC[n+]1c(/C=C/N(C)c2ccccc2)n(-c2ccccc2)c2ccc(-c3nc4ccccc4s3)cc21 , system BRAF (human): what residual activity was measured? 100

Entry N#CC(C#N)=C(N)/C(C#N)=C/c1ccc(O)cc1 , system BRAF (human): what residual activity was measured? 90.1

Entry c1ccc(-c2n[nH]cc2-c2ccnc3ccccc23)nc1 , system BRAF (human): what residual activity was measured? 95.7

Entry Cc1ccc(NC2=CC(=O)c3sc(C)nc3C2=O)cc1 , system BRAF (human): what residual activity was measured? 96.7

Entry CC#CC(=O)Nc1cc2c(Nc3ccc(F)c(Cl)c3)ncnc2cn1 , system BRAF (human): what residual activity was measured? 82.1

###

molecular target: BRSK2 (human) (UniProt Q8IWQ3); experiment: radiometric filter-binding kinase assay, Kinase HotSpot; details: compound 0.5 µM; ATP 10 µM
Sequence (Q8IWQ3 whole entry, looked up): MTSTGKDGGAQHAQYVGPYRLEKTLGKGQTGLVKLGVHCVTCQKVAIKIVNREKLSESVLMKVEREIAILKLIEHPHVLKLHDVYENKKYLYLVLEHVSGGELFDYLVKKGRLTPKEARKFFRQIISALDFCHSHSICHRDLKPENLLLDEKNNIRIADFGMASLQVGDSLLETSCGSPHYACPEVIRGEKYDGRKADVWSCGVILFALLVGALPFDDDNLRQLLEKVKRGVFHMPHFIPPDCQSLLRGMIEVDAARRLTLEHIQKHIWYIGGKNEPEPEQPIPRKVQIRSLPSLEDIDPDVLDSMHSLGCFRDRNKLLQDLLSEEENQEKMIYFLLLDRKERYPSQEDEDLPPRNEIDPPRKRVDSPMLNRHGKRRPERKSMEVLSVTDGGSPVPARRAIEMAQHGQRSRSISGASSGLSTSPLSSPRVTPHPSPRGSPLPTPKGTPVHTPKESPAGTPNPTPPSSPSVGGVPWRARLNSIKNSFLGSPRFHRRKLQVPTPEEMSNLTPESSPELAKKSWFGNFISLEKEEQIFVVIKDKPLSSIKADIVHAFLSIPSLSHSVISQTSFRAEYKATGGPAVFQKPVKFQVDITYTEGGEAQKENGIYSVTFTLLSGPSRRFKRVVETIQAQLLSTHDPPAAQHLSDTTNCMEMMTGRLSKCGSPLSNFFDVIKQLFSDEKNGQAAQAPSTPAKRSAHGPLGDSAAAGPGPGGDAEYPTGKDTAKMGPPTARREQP
Property Name: residual activity (%)
Report the value in % with no unit label.

Consider the following illustrative entries.
Structure: Nc1ncnc2c1c(-c1ccc(Oc3ccccc3)cc1)cn2C1CCCC1
Property Name: residual activity
Val: 98.3
--
Structure: CCOC(=O)c1c(C)[nH]c(/C=C2\C(=O)Nc3ccccc32)c1C
Property Name: residual activity
Val: 98.7
--
Structure: N#CC(C#N)=C(N)/C(C#N)=C/c1ccc(O)cc1
Property Name: residual activity
Val: 101
--
Structure: CC[n+]1c(/C=C/N(C)c2ccccc2)n(-c2ccccc2)c2ccc(-c3nc4ccccc4s3)cc21
Property Name: residual activity
Val: 95.7
--
Structure: c1ccc(-c2n[nH]cc2-c2ccnc3ccccc23)nc1
Property Name: residual activity
Val: 101
--
Structure: COc1ccc(COc2ccc(Cc3cnc(N)nc3N)cc2OC)cc1
Property Name: residual activity
Val: 96.8

Item Cc1ccc(Nc2nccc(N(C)c3ccc4c(C)n(C)nc4c3)n2)cc1S(N)(=O)=O has what recorded residual activity? 101

Item Nc1cccc(-c2cc3c(Oc4cccc(O)c4)ncnc3[nH]2)c1 has what recorded residual activity? 86.9

Item Nc1ncnc2[nH]nc(Nc3ccc(F)cc3)c12 has what recorded residual activity? 60.6

Item Cc1ccc(S(=O)(=O)/C=C/C#N)cc1 has what recorded residual activity? 99.4

Item Nc1ccc2ncnc(NCCc3ccc(Oc4ccccc4)cc3)c2c1 has what recorded residual activity? 102

###

target: UniProtKB Q9H0K1; assay: radiometric filter-binding kinase assay, Kinase HotSpot; details: compound 0.5 µM; ATP 10 µM
Sequence (Q9H0K1 whole entry, looked up): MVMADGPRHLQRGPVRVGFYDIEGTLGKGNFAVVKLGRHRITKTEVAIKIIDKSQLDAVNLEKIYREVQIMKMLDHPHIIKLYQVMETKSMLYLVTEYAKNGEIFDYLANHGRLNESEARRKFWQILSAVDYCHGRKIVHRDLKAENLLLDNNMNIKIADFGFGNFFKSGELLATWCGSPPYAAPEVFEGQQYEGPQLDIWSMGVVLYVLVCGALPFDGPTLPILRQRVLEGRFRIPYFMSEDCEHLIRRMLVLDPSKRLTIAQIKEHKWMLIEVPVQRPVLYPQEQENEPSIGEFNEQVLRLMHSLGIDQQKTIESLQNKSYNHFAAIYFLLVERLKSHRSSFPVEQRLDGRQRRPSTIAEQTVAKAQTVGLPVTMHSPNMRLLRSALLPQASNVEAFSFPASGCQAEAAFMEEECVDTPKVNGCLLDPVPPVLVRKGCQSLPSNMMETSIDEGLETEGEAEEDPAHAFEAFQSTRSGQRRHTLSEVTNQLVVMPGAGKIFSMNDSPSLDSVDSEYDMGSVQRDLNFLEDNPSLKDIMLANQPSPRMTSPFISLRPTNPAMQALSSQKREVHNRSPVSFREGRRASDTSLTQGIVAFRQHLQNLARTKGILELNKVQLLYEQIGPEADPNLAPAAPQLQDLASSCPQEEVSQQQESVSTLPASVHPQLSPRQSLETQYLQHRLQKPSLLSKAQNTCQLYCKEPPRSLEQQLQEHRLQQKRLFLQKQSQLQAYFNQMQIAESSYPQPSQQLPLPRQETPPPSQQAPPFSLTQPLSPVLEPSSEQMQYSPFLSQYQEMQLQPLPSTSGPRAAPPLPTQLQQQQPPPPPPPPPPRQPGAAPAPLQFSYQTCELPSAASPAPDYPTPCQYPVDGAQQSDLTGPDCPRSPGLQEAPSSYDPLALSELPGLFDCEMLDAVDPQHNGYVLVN
Label scheme for residual activity: lower than 90% is no, 90% and above is yes.

Compound: Nc1cccc(-c2cc3c(Oc4cccc(O)c4)ncnc3[nH]2)c1
Tested On: UniProtKB Q9H0K1
Class Name: no

Dear colleague, could you confirm whether COc1cc2ncnc(Nc3cccc(Cl)c3)c2cc1OC has residual activity at or above 90%? yes

Dear colleague, could you confirm whether CO[C@H]1CC2CC[C@@H](C)[C@@](O)(O2)C(=O)C(=O)N2CCCC[C@H]2C(=O)OC([C@H](C)C[C@@H]2CC[C@@H](O)[C@H](OC)C2)CC(=O)[C@H](C)/C=C(\C)[C@@H](O)[C@@H](OC)C(=O)[C@H](C)C[C@H](C)/C=C/C=C/C=C/1C (some centres undefined) has residual activity at or above 90%? yes

Dear colleague, could you confirm whether Cc1ccc(Nc2nccc(N(C)c3ccc4c(C)n(C)nc4c3)n2)cc1S(N)(=O)=O has residual activity at or above 90%? no

Dear colleague, could you confirm whether CNC(=O)c1cc(Oc2ccc(NC(=O)Nc3ccc(Cl)c(C(F)(F)F)c3)cc2)ccn1 has residual activity at or above 90%? yes
